Target: C. hominis Beta Face DHFR (Cryptosporidium parvum, UniProt Q27552, F207A/I196A/L203A/S195A/T199A/V200A)
Sequence (Q27552 1-521 S195A/I196A/T199A/V200A/L203A/F207A): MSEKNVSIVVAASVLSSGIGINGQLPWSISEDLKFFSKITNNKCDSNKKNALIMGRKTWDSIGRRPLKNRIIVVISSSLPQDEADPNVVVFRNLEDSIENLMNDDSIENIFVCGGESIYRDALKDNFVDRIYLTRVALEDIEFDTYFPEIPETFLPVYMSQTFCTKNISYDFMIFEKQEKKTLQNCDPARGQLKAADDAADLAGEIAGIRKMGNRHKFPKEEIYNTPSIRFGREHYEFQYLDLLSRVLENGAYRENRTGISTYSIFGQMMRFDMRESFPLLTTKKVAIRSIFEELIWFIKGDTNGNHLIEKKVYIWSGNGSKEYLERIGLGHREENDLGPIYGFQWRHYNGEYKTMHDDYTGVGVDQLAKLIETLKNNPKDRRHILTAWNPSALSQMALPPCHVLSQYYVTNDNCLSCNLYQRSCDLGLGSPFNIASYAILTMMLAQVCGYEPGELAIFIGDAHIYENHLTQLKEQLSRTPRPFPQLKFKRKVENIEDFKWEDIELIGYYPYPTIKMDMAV
Experiment: Steady-state DHFR inhibition assay against Beta Face mutant enzyme
Conditions: IC50 C. hominis Beta Face DHFR, Beta Face mutant enzyme, steady-state
Recorded endpoint: IC50

Which IC50 value is on record for "CC(C)CN(C(=O)Nc1ccc(CCC(=O)O)cc1Cc1ccccc1)C(=O)c1ccc(OCC(=O)O)c(Cc2ccccc2)c1" ?
~20 µM
